B1: 6NMW (parent)
chain: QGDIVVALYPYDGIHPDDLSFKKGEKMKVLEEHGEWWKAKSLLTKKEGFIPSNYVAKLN

- Variants of: B1
- Protocol details: folding stability dG (cDNA display proteolysis); higher = more stable
- Test conditions: PBS, room temperature
Record y whenever folding stability dG is at 1 kcal/mol or higher; record n when lower.

Request: # check: folding stability dG of D17R is greater than or equal to 1 kcal/mol
Response: y
